Measured Heparin Capacity by item
TEST_DETAILS: 3H-heparin binding assay (affinity and capacity)
RUN_PARAMETERS: heparin bound at saturation
Ends that are not written are not given here.
Please respond with the number in ng and leave the unit unwritten.

Would you please look over these solved cases?
>>> recorded_measurement("IKISGKWKAQKRFLKKSKVGWLIQLFHKK [BPI.63]")
305.1
>>> recorded_measurement("IKISGAWKAQKRFLK [BPI.20]")
203.6
>>> recorded_measurement("IKISGKWKAQKAFLK [BPI.25]")
107.2

Enquiry: Given IKASGKWKAQKRFLK [BPI.17] , state its recorded Heparin Capacity.
Return: 113.1

Enquiry: Given IKISGKWKAAKRFLK [BPI.23] , state its recorded Heparin Capacity.
Return: 285.0

Enquiry: Given IKISGKWDKAQKRFLK [BPI.66] , state its recorded Heparin Capacity.
Return: 111.6

---

Tested on: C. albicans
TEST_DETAILS: Radial diffusion fungicidal assay, Candida albicans
Format: cell-based
RUN_PARAMETERS: radial diffusion
Ends that are not written are not given here.
Measured C. albicans: pmol required for 30 mm^2 zone by item
Please respond with the number in pmol and leave the unit unwritten.

Would you please look over these solved cases?
>>> recorded_measurement("KSKVGWLIQLFHKF [BPI.96]")
1856.08
>>> recorded_measurement("KSKVGALIQLFHKK [BPI.36]")
196.96
>>> recorded_measurement("KSKVKFLIQLFHKK [BPI.138]")
256.82
>>> recorded_measurement("KSKVGVLIQLFHKK [BPI.166]")
170.65
>>> recorded_measurement("ASKVGWLIQLFHKK [BPI.31]")
426.21

Enquiry: Given KSKVGWLIQLWHKK [BPI.82] , state its recorded C. albicans: pmol required for 30 mm^2 zone.
Return: 518.43

Enquiry: Given KSKVGWLIQWFHKK [BPI.142] , state its recorded C. albicans: pmol required for 30 mm^2 zone.
Return: 1243.79

Enquiry: Given KSKVKWLIQLFHKK [BPI.97] , state its recorded C. albicans: pmol required for 30 mm^2 zone.
Return: 213.22

Enquiry: Given KSKVGWLIQLFHKA [BPI.44] , state its recorded C. albicans: pmol required for 30 mm^2 zone.
Return: 577.65

---

Tested on: Klebsiella pneumoniae
TEST_DETAILS: Radial diffusion bactericidal assay, Klebsiella pneumoniae
Assay type: cell-based
RUN_PARAMETERS: FIG. 10d
Ends that are not written are not given here.
RECORDED_METRIC: bactericidal activity (in words)

>>> recorded_measurement("KWKAQKRFLKKWKAQKRFLK-NH2 (C-terminus assumed) [BPI.7]")
"low levels of activity"
>>> recorded_measurement("KSKVGWLIQLFHKK-NH2 (C-terminus assumed) [BPI.13]")
"low levels of activity"

---

Test system: Candida albicans
Assay type: cell-based
Square brackets hold non-standard residues; d marks the D form. Peptide text beside a SMILES is read from it. Phe(4-NH2) = Nc1ccc(C[C@H](N)C(=O)O)cc1; 1Nal = N[C@@H](Cc1cccc2ccccc12)C(=O)O
RECORDED_METRIC: MIC C. alb (µg/mL)
Please respond with the number in µg/mL and leave the unit unwritten.

Would you please look over these solved cases?
>>> recorded_measurement("CC[C@H](C)[C@H](NC(=O)[C@H](CC(C)C)NC(=O)[C@H](Cc1ccc(N)cc1)NC(=O)CNC(=O)[C@@H](NC(=O)[C@H](CCCCN)NC(=O)[C@H](CO)NC(=O)[C@@H](N)CCCCN)C(C)C)C(=O)N[C@@H](CCC(N)=O)C(=O)N[C@@H](CC(C)C)C(=O)N[C@@H](Cc1ccccc1)C(=O)N[C@@H](Cc1c[nH]cn1)C(=O)N[C@@H](CCCCN)C(=O)N[C@@H](CCCCN)C(=O)O [BPI.133] (H-KSKVG[Phe(4-NH2)]LIQLFHKK-OH; N-terminus and C-terminus assumed)")
12.50
>>> recorded_measurement("CC[C@H](C)[C@H](NC(=O)[C@H](CC(C)C)NC(=O)[C@H](Cc1c[nH]c2ccccc12)NC(=O)CNC(=O)[C@@H](NC(=O)[C@H](CCCCN)NC(=O)[C@H](CO)NC(=O)[C@@H](N)CCCCN)C(C)C)C(=O)N[C@@H](CCC(N)=O)C(=O)N[C@@H](Cc1cccc2ccccc12)C(=O)N[C@@H](Cc1ccccc1)C(=O)N[C@@H](Cc1c[nH]cn1)C(=O)N[C@@H](CCCCN)C(=O)N[C@@H](CCCCN)C(=O)O [BPI.143] (H-KSKVGWLIQ[1Nal]FHKK-OH; N-terminus and C-terminus assumed)")
25.00

Okay, now this molecule:
Enquiry: Given CC[C@H](C)[C@H](NC(=O)[C@H](CC(C)C)NC(=O)[C@H](Cc1c[nH]c2ccccc12)NC(=O)[C@H](Cc1ccc(N)cc1)NC(=O)[C@@H](NC(=O)[C@H](CCCCN)NC(=O)[C@H](CO)NC(=O)[C@@H](N)CCCCN)C(C)C)C(=O)N[C@@H](CCC(N)=O)C(=O)N[C@@H](CC(C)C)C(=O)N[C@@H](Cc1ccccc1)C(=O)N[C@@H](Cc1c[nH]cn1)C(=O)N[C@@H](CCCCN)C(=O)N[C@@H](CCCCN)C(=O)O [BPI.134] (H-KSKV[Phe(4-NH2)]WLIQLFHKK-OH; N-terminus and C-terminus assumed) , state its recorded MIC C. alb.
Return: 12.50

---

TEST_DETAILS: 3H-heparin binding assay (affinity and capacity)
RUN_PARAMETERS: 100 picomoles of each fragment per well, saturating 3H-heparin 20 μg/mL; mean of duplicate wells ± range
Measured cpm ^3H-Heparin bound by item

Would you please look over these solved cases?
>>> recorded_measurement("C3: CNBr fragment of rBPI23, residues 71-100 (VPNVGLKFSISNANIKISGKWKAQKRFLKM; CNBr fragment; UniProt P17213 102-131, looked up, fragment)")
"81,655 ± 3,163 cpm"
>>> recorded_measurement("C2: CNBr fragment of rBPI23, residues 57-70 (DIREFQLPSSQISM; CNBr fragment; UniProt P17213 88-101, looked up, fragment)")
"6,262 ± 182 cpm"
>>> recorded_measurement("A4: Asp-N fragment of rBPI23, residues 57-104 (DIREFQLPSSQISMVPNVGLKFSISNANIKISGKWKAQKRFLKMSGNF; UniProt P17213 88-135, looked up, fragment)")
"33,159 ± 1.095 cpm"
>>> recorded_measurement("C6: CNBr fragment of rBPI23, residues 171-196 (NSQVCEKVTNSVSSELQPYFQTLPVM; CNBr fragment; UniProt P17213 202-227, looked up, fragment)")
"26,204 ± 844 cpm"
>>> recorded_measurement("A2: Asp-N fragment of rBPI23, residues 15-38 (DYASQQGTAALQKELKRIKIPDYS; Asp-N fragment; UniProt P17213 46-69, looked up, fragment)")
"3,042 ± 162 cpm"

Enquiry: Given A3: Asp-N fragment of rBPI23, residues 39-56 (DSFKIKHLGKGHYSFYSM; UniProt P17213 70-87, looked up, fragment) , state its recorded cpm ^3H-Heparin bound.
Return: 8,664 ± 128 cpm

Enquiry: Given C4: CNBr fragment of rBPI23, residues 101-111 (SGNFDLSIEGM; CNBr fragment; UniProt P17213 132-142, looked up, fragment) , state its recorded cpm ^3H-Heparin bound.
Return: 4,686 ± 4 cpm

Enquiry: Given A1: Asp-N fragment of rBPI23, region 1-38 as printed in Table II (A1 A2 in Table I) (VNPGVVVRISQKGLDYASQQGTAALQKELKRIKIPDYS; Asp-N fragment; UniProt P17213 32-69, looked up, fragment) , state its recorded cpm ^3H-Heparin bound.
Return: 17,002 ± 479 cpm

---

TEST_DETAILS: 3H-heparin binding assay (affinity and capacity)
RUN_PARAMETERS: read-out: Heparin Affinity
Ends that are not written are not given here.
Measured Kd by item
Please respond with the number in nM and leave the unit unwritten.

Would you please look over these solved cases?
>>> recorded_measurement("IKISGKWKAQKRFLA [BPI.28]")
266
>>> recorded_measurement("KSKVGWLIKLFHKK [BPI.92]")
667
>>> recorded_measurement("IKISAKWKAQKRFLK [BPI.19]")
266

Enquiry: Given KWKAAARFLKKWKAAARFLKKWKAAARFLK [BPI.69] , state its recorded Kd.
Return: 967

Enquiry: Given GWLIQLFHKKIESALRNKMNS [BPI.55] , state its recorded Kd.
Return: 368

Enquiry: Given IKISGKWDKAQKRFLK [BPI.66] , state its recorded Kd.
Return: 296

Enquiry: Given KSKVGWLIQLFLKK [BPI.87] , state its recorded Kd.
Return: 575

---

Test system: Staphylococcus aureus
TEST_DETAILS: Radial diffusion bactericidal assay, Staphylococcus aureus
Format: cell-based
RUN_PARAMETERS: radial diffusion; PROBIT analysis; S. aureus
Square brackets hold non-standard residues; d marks the D form. Ends that are not written are not given here. 1Nal = N[C@@H](Cc1cccc2ccccc12)C(=O)O
RECORDED_METRIC: pmol added to well to achieve a 30 mm^2 bactericidal zone, S. aureus

>>> recorded_measurement("KSKVGWLILLFHKK [BPI.86]")
"459,138.55 pmol"
>>> recorded_measurement("KWKAAARFLKKWKAQKRFLK [BPI.46]")
"3,810,752.30 pmol"
>>> recorded_measurement("KSKVGWLIQLWHKK [BPI.82]")
"11,027.00 pmol"
>>> recorded_measurement("IKISGKWKAWKRFLKK [BPI.103]")
"4,705.95 pmol"
>>> recorded_measurement("KWKAAARFLKKWKAAARFLKKWKAAARFLK [BPI.69]")
"1,057.56 pmol"
>>> recorded_measurement("KWKAQWRFLKKWKAQWRFLKKWKAQWRFLK [BPI.99]")
"37,942,676.00 pmol"
>>> recorded_measurement("IKISGKWKAFKRFLK [BPI.81]")
"9,477.20 pmol"
>>> recorded_measurement("KSKVKALIQLFHKK [BPI.161]")
"100,476.32 pmol"

Enquiry: Entry IKISGKWKAWKRAβ-(1-naphthyl)LKK (IKISGKWKAWKR[1Nal]LKK) [BPI.105] , system Staphylococcus aureus: what pmol added to well to achieve a 30 mm^2 bactericidal zone, S. aureus was measured?
Return: 6,260.97 pmol

Enquiry: Entry IKISGKWKAAβ-(1-naphthyl)Aβ-(1-naphthyl)RFLK (IKISGKWKA[1Nal][1Nal]RFLK) [BPI.121] , system Staphylococcus aureus: what pmol added to well to achieve a 30 mm^2 bactericidal zone, S. aureus was measured?
Return: 941,388.07 pmol

Enquiry: Entry KSKVGWLISLFHKK [BPI.104] , system Staphylococcus aureus: what pmol added to well to achieve a 30 mm^2 bactericidal zone, S. aureus was measured?
Return: 27,933.64 pmol

Enquiry: Entry KSKVKWLIKLFFKFKSKVKWLIKLFFKF [BPI.101] , system Staphylococcus aureus: what pmol added to well to achieve a 30 mm^2 bactericidal zone, S. aureus was measured?
Return: 4,388.20 pmol

Enquiry: Entry KSKVGWLIQLFLKK [BPI.87] , system Staphylococcus aureus: what pmol added to well to achieve a 30 mm^2 bactericidal zone, S. aureus was measured?
Return: 868,991.70 pmol

Enquiry: Entry IKISGKAβ-(1-naphthyl)KAAβ-(1-naphthyl)KRFLK (IKISGK[1Nal]KA[1Nal]KRFLK) [BPI.119] , system Staphylococcus aureus: what pmol added to well to achieve a 30 mm^2 bactericidal zone, S. aureus was measured?
Return: 166,163.83 pmol

Enquiry: Entry KWKAQKRFLKKWKAQKRFLK-NH2 (C-terminus assumed) [BPI.7] , system Staphylococcus aureus: what pmol added to well to achieve a 30 mm^2 bactericidal zone, S. aureus was measured?
Return: 3,769.60 pmol

Enquiry: Entry KWKAAARFLKKWKAAARFLK [BPI.48] , system Staphylococcus aureus: what pmol added to well to achieve a 30 mm^2 bactericidal zone, S. aureus was measured?
Return: 4,089.14 pmol

Entry source: patent US20040023884A1
